experimental_target: BACE1 (Homo sapiens)
Sequence (P56817 46-501, species assumed): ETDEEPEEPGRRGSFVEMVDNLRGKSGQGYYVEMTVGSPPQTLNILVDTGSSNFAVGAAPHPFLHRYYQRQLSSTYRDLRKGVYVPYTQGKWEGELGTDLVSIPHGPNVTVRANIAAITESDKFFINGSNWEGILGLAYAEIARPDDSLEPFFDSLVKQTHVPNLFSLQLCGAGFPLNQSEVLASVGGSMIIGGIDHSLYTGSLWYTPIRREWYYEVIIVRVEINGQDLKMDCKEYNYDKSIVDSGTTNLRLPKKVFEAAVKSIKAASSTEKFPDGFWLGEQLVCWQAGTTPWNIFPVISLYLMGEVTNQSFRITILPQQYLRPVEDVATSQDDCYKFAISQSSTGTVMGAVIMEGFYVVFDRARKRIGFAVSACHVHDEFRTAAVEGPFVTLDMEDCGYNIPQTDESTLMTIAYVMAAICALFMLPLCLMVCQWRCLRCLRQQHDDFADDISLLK
procedure_summary: In Vitro BACE Cell-based Assay (HEK cell assay): Aβ40 in conditioned medium of cells stably expressing Amyloid Precursor Protein, sandwich ELISA
recorded_conditions: read-out: HEK cell assay
pIC50: −log10 of the molar value.
outcome_measure: pIC50

Prompt line: Report pIC50 for "COc1ccc(-c2ccc3c(c2)[C@@]2(COC(N)=N2)c2cc(C#CC(C)(C)OC)cnc2O3)cn1"
Response line: 6.00 to 7.00

Prompt line: Provide measured pIC50 value, entry: "Cc1noc(C)c1-c1ccc2c(c1)[C@]1(COC(N)=N1)c1cc(-c3cccnc3)ccc1O2"
Response line: 6.00 to 7.00

Prompt line: Please list pIC50 recorded for the compound "NC1=NC2(CO1)c1cc(C3CC3)ccc1Oc1ccc(C3CC3)cc12"
Response line: 5.30 to 6.00

Prompt line: Tell me its pIC50 given "NC1=N[C@@]2(CO1)c1cc(-c3cccnc3)ccc1Oc1ccc(-c3nccs3)cc12" as the entry.
Response line: > 7.00

Prompt line: Respond only with pIC50 recorded for "COc1ccc(-c2ccc3c(c2)[C@]2(COC(N)=N2)c2cc(-c4cccnc4)ccc2O3)o1"
Response line: 6.00 to 7.00

Further cases:
Prompt line: Please indicate pIC50 recorded for "CC(C)(C)COc1ccc2c(c1)[C@@]1(COC(N)=N1)c1cc(C(=O)N3CCCC3)ccc1O2"
Response line: 5.30 to 6.00

Prompt line: Entry "CC(C)(C)COc1ccc2c(c1)[C@]1(COC(N)=N1)c1cc(-c3ccc(Br)nn3)ccc1O2" needs its pIC50 filled in; supply it.
Response line: < 5.30

Prompt line: Give pIC50 for the following compound: "CC(C)(C)COc1ccc2c(c1)[C@]1(COC(N)=N1)c1cc(C#N)ccc1O2"
Response line: 5.30 to 6.00
